Each item that follows carries a reported binding signal.
assayed.system: T1, RBFOX1 RRM (Homo sapiens, UniProt Q9NWB1 109-208)
T1 sequence: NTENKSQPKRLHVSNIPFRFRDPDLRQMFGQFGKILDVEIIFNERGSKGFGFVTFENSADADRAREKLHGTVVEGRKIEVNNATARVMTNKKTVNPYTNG
assay.info: EMSA; HiTS-Eq, 1 nM pool, 10 min; buffer printed only for the single-RNA assays: 10 mM Tris pH 7.5, 150 mM NaCl, 3.4 mM EDTA, 0.001% NP-40, 30 C
measurement.conditions: tags: His6 N-terminal (pET28a); label: 5' 32P
In all, about 16,000 sequences were measured (“ka relative to ugcaugu”: median about 0.0091, highest 2% from about 0.032 on). The list comes from a sample in which the highest values are over-represented; it also holds close analogues and randomly drawn sequences.

UGGUGGG (DNA:RNA) RNA: GGGAGACCGGAAUUCAGAUUGUCCUGGUGGGUUAAAUCCCGUCGUAGCCACCA DNA 1: CAATCTGAATTCCGGTCTCCC DNA 2: TGGTGGCTACGACGGGATT : 0.0153 KA relative to UGCAUGU

Q: Request the reported binding signal associated with CUAAUAC (DNA:RNA) RNA: GGGAGACCGGAAUUCAGAUUGUCCCUAAUACUUAAAUCCCGUCGUAGCCACCA DNA 1: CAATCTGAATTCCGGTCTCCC DNA 2: TGGTGGCTACGACGGGATT
Result: 0.00176 KA relative to UGCAUGU

Hey, just so you know, these numbers are from paper PMC9911399.
